- target-or-system: Tyrosine-protein kinase ABL1 (Homo sapiens, UniProt P00519)
- Sequence (P00519 whole entry): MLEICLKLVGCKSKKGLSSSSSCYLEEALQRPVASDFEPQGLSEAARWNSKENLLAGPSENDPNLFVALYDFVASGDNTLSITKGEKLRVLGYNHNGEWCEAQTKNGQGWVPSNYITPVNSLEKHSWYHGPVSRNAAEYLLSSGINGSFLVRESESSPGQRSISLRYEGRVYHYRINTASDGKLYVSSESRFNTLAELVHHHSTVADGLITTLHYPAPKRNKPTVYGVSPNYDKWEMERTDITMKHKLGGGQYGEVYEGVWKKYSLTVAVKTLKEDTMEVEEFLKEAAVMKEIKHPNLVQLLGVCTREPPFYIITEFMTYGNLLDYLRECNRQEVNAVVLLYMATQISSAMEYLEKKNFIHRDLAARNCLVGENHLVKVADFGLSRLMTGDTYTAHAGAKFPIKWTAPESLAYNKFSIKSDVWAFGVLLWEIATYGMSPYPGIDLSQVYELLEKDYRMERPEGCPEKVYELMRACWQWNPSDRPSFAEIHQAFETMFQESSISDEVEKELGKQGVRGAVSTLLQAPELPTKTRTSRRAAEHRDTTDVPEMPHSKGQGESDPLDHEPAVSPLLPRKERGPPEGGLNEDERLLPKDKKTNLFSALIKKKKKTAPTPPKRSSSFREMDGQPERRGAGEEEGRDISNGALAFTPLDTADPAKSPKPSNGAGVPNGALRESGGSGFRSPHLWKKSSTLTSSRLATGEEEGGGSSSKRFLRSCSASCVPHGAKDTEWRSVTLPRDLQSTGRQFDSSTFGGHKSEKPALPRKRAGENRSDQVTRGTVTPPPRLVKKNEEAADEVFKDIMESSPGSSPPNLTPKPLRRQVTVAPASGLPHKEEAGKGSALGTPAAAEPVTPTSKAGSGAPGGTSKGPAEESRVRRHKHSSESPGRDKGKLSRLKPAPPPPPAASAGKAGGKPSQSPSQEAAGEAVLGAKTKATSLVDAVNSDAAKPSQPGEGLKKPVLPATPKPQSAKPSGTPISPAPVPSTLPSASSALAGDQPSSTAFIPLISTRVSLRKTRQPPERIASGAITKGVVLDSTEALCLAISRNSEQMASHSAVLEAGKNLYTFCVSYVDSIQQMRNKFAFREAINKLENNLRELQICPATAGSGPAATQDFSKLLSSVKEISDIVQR
metric: Kd

Some molecules with known Kd results, for comparison:
chemical-string | result
NC(=O)c1ccc(-c2nc(-c3ccc4c(c3)OCO4)c(-c3ccccn3)[nH]2)cc1 | > 10 µM
COCC(=O)NC/C=C/c1ccc2ncnc(Nc3ccc(Oc4ccc(C)nc4)c(C)c3)c2c1 | > 10 µM

Please look at the following molecule next.
Problem: Provide Kd, system Tyrosine-protein kinase ABL1 (Homo sapiens, UniProt P00519), entry "Oc1ccc(-c2nc(-c3ccncc3)c(-c3ccc(F)cc3)[nH]2)cc1"
Result: > 10 µM

---

Below are Kd values measured for Epidermal growth factor receptor (Homo sapiens, UniProt P00533, L861Q).

compound | result
Nc1nc(Nc2ccc(S(N)(=O)=O)cc2)nn1C(=O)c1c(F)cccc1F [JNJ-7706621] | > 10 µM

Problem: Look up and report measured Kd (Epidermal growth factor receptor (Homo sapiens, UniProt P00533, L861Q)) for the following compound: NC(=O)c1ccc(-c2nc(-c3ccc4c(c3)OCO4)c(-c3ccccn3)[nH]2)cc1 [SB-431542]
Result: > 10 µM
